- ASSAYED SYSTEM: Cytochrome P450 2C9 (Homo sapiens) (UniProt P11712)
- Sequence (P11712 whole entry, looked up): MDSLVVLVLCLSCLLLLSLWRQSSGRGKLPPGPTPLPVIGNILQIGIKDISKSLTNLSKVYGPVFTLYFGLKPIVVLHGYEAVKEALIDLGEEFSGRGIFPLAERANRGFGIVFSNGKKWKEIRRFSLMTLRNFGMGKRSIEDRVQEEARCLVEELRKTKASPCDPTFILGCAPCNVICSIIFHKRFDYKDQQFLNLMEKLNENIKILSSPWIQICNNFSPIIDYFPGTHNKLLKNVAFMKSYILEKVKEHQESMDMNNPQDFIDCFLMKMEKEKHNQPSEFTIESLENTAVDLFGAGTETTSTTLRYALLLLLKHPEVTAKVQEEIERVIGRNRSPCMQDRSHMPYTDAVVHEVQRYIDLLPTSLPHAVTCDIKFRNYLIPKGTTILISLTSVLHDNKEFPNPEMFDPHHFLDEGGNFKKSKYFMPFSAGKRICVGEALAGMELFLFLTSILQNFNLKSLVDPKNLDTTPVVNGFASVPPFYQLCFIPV
- TEST METHOD NOTES: Cytochrome P450 family 2 subfamily C member 9 (CYP2C9) small molecule antagonists: luciferase biochemical (cell-free) qHTS assay (AID 1645842); also: nearly all actives have a fitted effect of over 55% in size
- CONDITIONS: P450-Glo CYP2C9 enzyme assay, luciferin luminescence; series mostly up to 57.4 µM
Results filed as inconclusive are left out. Active and inactive are the calls of the source. Calls follow the shape of the dose curve; as a rule, active = well fitted inhibition curve with a large enough effect in the repeat runs; inconclusive = weak or mixed curves; inactive = no such curve, though single readings can be large or run the other way.
Answer with one of the outcomes given here: active, inactive

IN: Name the outcome recorded for CC1(C#N)CCN(c2c(C(=O)N3CCN(C(=O)C4CC4)CC3)cnc3c(F)cc(F)cc23)CC1 in the assay.
OUT: active

IN: Name the outcome recorded for Cc1ccc(-n2c(SCc3cccc(F)c3)nc3[nH]ncc3c2=O)cc1C in the assay.
OUT: active

IN: Name the outcome recorded for Cc1ccc(-n2ncc3c(NCCCn4ccnc4)ncnc32)cc1Cl in the assay.
OUT: active

IN: Name the outcome recorded for COc1ccc(-c2noc(CCCC(=O)Nc3cccc(Cl)c3C)n2)cc1 in the assay.
OUT: active

IN: Name the outcome recorded for Cc1ccc([S+](=O)([O-])NC2(c3ccccc3)CCCCC2)cc1 in the assay.
OUT: active

IN: Name the outcome recorded for CC(CCC(=O)O)C1CC[C@H]2C3[C@H](O)C[C@@H]4C[C@H](O)CCC4(C)[C@H]3C[C@H](O)C12C (some centres undefined) in the assay.
OUT: inactive

IN: Name the outcome recorded for Cc1cccc(Cn2c(SCc3ccc(C(=O)N4CCC(C)CC4)cc3)nc3ccncc32)c1 in the assay.
OUT: active

IN: Name the outcome recorded for CC(C)OCc1cc(CN2CCN(c3cccc(C(F)(F)F)c3)CC2)c(O)c2ncccc12 in the assay.
OUT: active

IN: Name the outcome recorded for CCC(=O)N1CCc2cc(S(=O)(=O)NC(Cc3ccccc3)C(=O)NCc3cccc(OC)c3)ccc21 (centres undefined) in the assay.
OUT: active

###

- System: CP194
- TEST METHOD NOTES: qHTS profiling for inhibitors of Plasmodium falciparum proliferation (AID 504749); also: nearly all actives have a fitted effect of over 60% in size
- CONDITIONS: P. falciparum in erythrocytes, SYBR Green DNA, 72 h; series mostly up to 12.8 µM
Results filed as inconclusive are left out. Activity calls are given as the source filed them. Calls follow the shape of the dose curve; as a rule, active = well fitted inhibition curve with a large enough effect; inconclusive = small, poorly fitted or top-dose-only effect; inactive = flat fitted curve, though single readings scatter.
Answer with one of the outcomes given here: label 1 for active, label 0 for inactive

IN: Name the outcome recorded for O=C(O)[C@@H]1CCCN1 in the assay.
OUT: label 0

IN: Name the outcome recorded for O=C(NC[C@@H](O)CO)c1c(I)c(C(=O)NC[C@@H](O)CO)c(I)c(N(CCO)C(=O)CO)c1I in the assay.
OUT: label 0

IN: Name the outcome recorded for CC(=O)N[C@@H]1C(O)OC(CO)C(O)C1O (some centres not stated) in the assay.
OUT: label 0

IN: Name the outcome recorded for CC(C)(C)NC[C@@H](O)COc1ccccc1C1CCCC1 in the assay.
OUT: label 1

IN: Name the outcome recorded for CC[N+](CC)(CC)CC[C@](O)(c1ccccc1)C1CCCCC1 in the assay.
OUT: label 0

IN: Name the outcome recorded for CC1(C)OC2CO[C@]3(COS(N)(=O)=O)OC(C)(C)OC3C2O1 (some centres not stated) in the assay.
OUT: label 0

IN: Name the outcome recorded for O=C(OC[C@@H](O)CO)c1ccccc1Nc1ccnc2cc(Cl)ccc12 in the assay.
OUT: label 0

###

- System: AS120
- TEST METHOD NOTES: qHTS profiling for inhibitors of Plasmodium falciparum proliferation (AID 504749); also: nearly all actives have a fitted effect of over 60% in size; also: potency is read from the fitted curve at half-maximal effect
- CONDITIONS: P. falciparum in erythrocytes, SYBR Green DNA, 72 h; series mostly up to 12.8 µM
Records with an inconclusive call do not appear. Active and inactive are the calls of the source. Calls come from the whole dose curve; as a rule, active = well fitted inhibition curve with a large enough effect; inconclusive = small, poorly fitted or top-dose-only effect; inactive = flat fitted curve, though single readings scatter.
METRIC NAME: Potency

O=C(N/N=C\c1ccc([N+](=O)[O-])o1)c1ccc(O)cc1 : 2.82 µM (active)
C[C@@H]1C[C@H]2[C@@H]3C[C@H](F)C4=CC(=O)C=C[C@@]4(C)[C@]3(F)[C@H](O)C[C@]2(C)[C@@]1(O)C(=O)CO : inactive
CC(C)(C)NC[C@@H](O)COc1ccccc1C1CCCC1 : 3.98 µM (active)
CC(C)(C)NC(=O)[C@@H]1CC[C@@H]2[C@@H]3CC[C@@H]4NC(=O)C=C[C@@]4(C)[C@H]3CC[C@]21C : inactive

###

For each of the compounds below, state its Potency.
- ASSAYED SYSTEM: Tyrosyl-DNA phosphodiesterase 1 (Homo sapiens)
- TEST METHOD NOTES: Confirmation Assay for Inhibitors of Tyrosyl-DNA Phosphodiesterase (TDP1) (AID 489007); also: potency is read from the fitted curve at half-maximal effect; nearly all actives have a fitted effect of over 40% in size
- CONDITIONS: recombinant human TDP1 enzymatic activity, dose-response
Inconclusive results are not listed. The source made the active and inactive calls. The call rests on the fitted dose curve; in most records, active means well fitted inhibition curve with a large enough effect; inconclusive means small, poorly fitted or top-dose-only effect; inactive means flat fitted curve, though single readings scatter.

IN: Look up Potency with Tyrosyl-DNA phosphodiesterase 1 (Homo sapiens) for this compound: Cc1cc(O)c(C=O)c2c1C(=O)Oc1c(C)c(O)c3c(c1O2)C(O)OC3=O (centres undefined)
OUT: 5.62 µM (active)

IN: Look up Potency with Tyrosyl-DNA phosphodiesterase 1 (Homo sapiens) for this compound: CC1=C(CCC(=O)O)c2cc3nc(cc4[nH]c(cc5[nH]c(cc1n2)c(C)c5C(C)O)c(C)c4C(C)O)C(C)=C3CCC(=O)O (centres undefined)
OUT: 6.31 µM (active)

IN: Look up Potency with Tyrosyl-DNA phosphodiesterase 1 (Homo sapiens) for this compound: Cc1cc(O)c(C=O)c2c1C(=O)Oc1c(COC(=O)/C=C/C(=O)O)c(O)c(C(=O)O)c(C)c1O2
OUT: 3.16 µM (active)

IN: Look up Potency with Tyrosyl-DNA phosphodiesterase 1 (Homo sapiens) for this compound: COc1c(O)cc(O)cc1O
OUT: 8.91 µM (active)

###

- Tested on: C2A
- TEST METHOD NOTES: qHTS profiling for inhibitors of Plasmodium falciparum proliferation (AID 504749); also: nearly all actives have a fitted effect of over 60% in size
- CONDITIONS: P. falciparum in erythrocytes, SYBR Green DNA, 72 h; series mostly up to 12.8 µM
- Experimental: NIH National Institute of Allergy and Infectious Diseases [NIAID] NIH Chemical Genomics Center [NCGC] […] Because mature erythrocytes lack DNA, only Plasmodium-derived DNA is detected. NCGC Assay Protocol Summary: The SYBR Green viability assay was adapted from a method described previously (Plouffe et al., 2008). […] The following morning, fluorescence intensity at 485(14) nm excitation and 535(25) nm emission wavelengths was measured on an EnVision (Perkin Elmer) plate reader. […]
Inconclusive results are not listed. Activity calls are given as the source filed them. Calls follow the shape of the dose curve; as a rule, active = well fitted inhibition curve with a large enough effect; inconclusive = small, poorly fitted or top-dose-only effect; inactive = flat fitted curve, though single readings scatter. Bridge positions count the residues as written; N and C are the ends. Square brackets hold non-standard residues; d marks the D form. Peptide text beside a SMILES is read from it. * marks the point of attachment. Ileψ(thiazoline)Cys = CC[C@H](C)[C@H](N)C1=N[C@H](C(=O)*)CS1; d(aIle) = CC[C@H](C)[C@@H](N)C(=O)O; dOrn = NCCC[C@@H](N)C(=O)O
Answer with one of the outcomes given here: 1 (yes) = active, 0 (no) = inactive

IN: Name the outcome recorded for CC[C@H](C)[C@H](N)C1=N[C@H](C(=O)N[C@@H](CC(C)C)C(=O)N[C@@H](CCC(=O)O)C(=O)N[C@@H](C(=O)N[C@H]2CCCCNC(=O)[C@@H](CC(N)=O)NC(=O)[C@@H](CC(=O)O)NC(=O)[C@@H](Cc3cnc[nH]3)NC(=O)[C@@H](Cc3ccccc3)NC(=O)[C@@H]([C@@H](C)CC)NC(=O)[C@@H](CCCN)NC2=O)[C@@H](C)CC)CS1 ({Ileψ(thiazoline)Cys}-LE[d(aIle)]K[dOrn][d(aIle)][dF][dH][dD][dN]; lactam 4-C) in the assay.
OUT: 0 (no)

IN: Name the outcome recorded for C[C@@]12CC[C@H]3[C@@H](CCC4=CC(=O)CC[C@]43C)[C@H]1CC[C@H]2C(=O)CO in the assay.
OUT: 0 (no)

IN: Name the outcome recorded for CC[C@H](Cc1c(I)cc(I)c(N)c1I)C(=O)O in the assay.
OUT: 0 (no)

IN: Name the outcome recorded for CC(C)NC[C@H]1CCc2cc(CO)c([N+](=O)[O-])cc2N1 in the assay.
OUT: 0 (no)

IN: Name the outcome recorded for CN1C(=O)C[C@H](c2ccccc2)C1=O in the assay.
OUT: 0 (no)

IN: Name the outcome recorded for CN(C/C=C\c1ccccc1)Cc1cccc2ccccc12 in the assay.
OUT: 0 (no)

IN: Name the outcome recorded for CCCC[C@H](CC)CN1CN(C[C@@H](CC)CCCC)CC(C)(N)C1 in the assay.
OUT: 0 (no)

IN: Name the outcome recorded for CC[C@H](CO)NCCN[C@@H](CC)CO in the assay.
OUT: 0 (no)

IN: Name the outcome recorded for N[C@@H]1C(O)OC(CO)C(O)C1O (stereo partly drawn) in the assay.
OUT: 0 (no)

IN: Name the outcome recorded for CC[N+](CC)(CC)CC[C@](O)(c1ccccc1)C1CCCCC1 in the assay.
OUT: 0 (no)

IN: Name the outcome recorded for C#C[C@]1(O)CC[C@@H]2[C@H]3CCC4=CCCC[C@@H]4[C@@H]3CC[C@@]21C in the assay.
OUT: 0 (no)

IN: Name the outcome recorded for COc1cc2nc(N3CCN(C(=O)[C@@H]4CCCO4)CC3)nc(N)c2cc1OC in the assay.
OUT: 0 (no)

IN: Name the outcome recorded for COc1cc(N[C@@H](C)CCCN)c2ncccc2c1 in the assay.
OUT: 1 (yes)

IN: Name the outcome recorded for CC(=O)[C@@H]1CC[C@@H]2[C@@H]3C[C@H](C)C4=CC(=O)CC[C@@]4(C)[C@H]3[C@H](O)C[C@]21C in the assay.
OUT: 0 (no)

IN: Name the outcome recorded for CO[C@H]1[C@H](O[C@H]2O[C@@H](C)[C@@H](O[C@@H]3C[C@](C)(O)[C@H](O)[C@H](C)O3)[C@@H](N(C)C)[C@@H]2O)[C@@H](CC=O)C[C@@H](C)[C@@H](O[C@H]2CC[C@H](N(C)C)[C@H](C)O2)/C=C\C=C/C[C@@H](C)OC(=O)C[C@H]1O in the assay.
OUT: 0 (no)

IN: Name the outcome recorded for C[C@H](N[C@@H](C)COc1ccccc1)[C@H](O)c1ccc(O)cc1 in the assay.
OUT: 0 (no)

IN: Name the outcome recorded for CC(C)C1CCC(C(=O)NC(Cc2ccccc2)C(=O)O)CC1 (stereo not drawn) in the assay.
OUT: 0 (no)

IN: Name the outcome recorded for CCN(CCCCOC(=O)c1ccc(OC)c(OC)c1)[C@@H](C)Cc1ccc(OC)cc1 in the assay.
OUT: 0 (no)
